Values compiled from BigSolDB 2.1.

Conditions: in isopropanol, 298.2 K
METRIC: solubility (mole fraction)

Query :: Recorded solubility (mole fraction) of "Cc1ccc(-c2ncc(Cl)cc2-c2ccc(S(C)(=O)=O)cc2)cn1" , please.
Result :: 0.0452

---

Details: in ethylene glycol, 298.2 K
METRIC: solubility (mole fraction)
One number for each entry.

Query :: Recorded solubility (mole fraction) of "Cc1ccc(-c2ncc(Cl)cc2-c2ccc(S(C)(=O)=O)cc2)cn1" , please.
Result :: 0.119

---

Conditions: in DMF, 308.2 K
METRIC: solubility (mole fraction)
One number for each entry.

Query :: Recorded solubility (mole fraction) of "Cc1ccc(-c2ncc(Cl)cc2-c2ccc(S(C)(=O)=O)cc2)cn1" , please.
Result :: 0.215

---

Conditions: in glycerin, 303.2 K
METRIC: solubility (mole fraction)
Numbers only.

Query :: Recorded solubility (mole fraction) of "Cc1ccc(-c2ncc(Cl)cc2-c2ccc(S(C)(=O)=O)cc2)cn1" , please.
Result :: 0.0577

---

Conditions: in ethylene glycol, 313.2 K
METRIC: solubility (mole fraction)
Give bare numbers.

Query :: Recorded solubility (mole fraction) of "Cc1ccc(-c2ncc(Cl)cc2-c2ccc(S(C)(=O)=O)cc2)cn1" , please.
Result :: 0.153

---

Settings: in isopropanol, 303.2 K
METRIC: solubility (mole fraction)

Query :: Recorded solubility (mole fraction) of "Cc1ccc(-c2ncc(Cl)cc2-c2ccc(S(C)(=O)=O)cc2)cn1" , please.
Result :: 0.0668

---

Settings: in DMF, 303.2 K
METRIC: solubility (mole fraction)
One number for each entry.

Query :: Recorded solubility (mole fraction) of "Cc1ccc(-c2ncc(Cl)cc2-c2ccc(S(C)(=O)=O)cc2)cn1" , please.
Result :: 0.122

---

Details: in 1,4-butanediol, 313.2 K
METRIC: solubility (mole fraction)
Numbers only.

Query :: Recorded solubility (mole fraction) of "Cc1ccc(-c2ncc(Cl)cc2-c2ccc(S(C)(=O)=O)cc2)cn1" , please.
Result :: 0.124

---

Details: in propylene glycol, 308.2 K
METRIC: solubility (mole fraction)
Numbers only.

Query :: Recorded solubility (mole fraction) of "Cc1ccc(-c2ncc(Cl)cc2-c2ccc(S(C)(=O)=O)cc2)cn1" , please.
Result :: 0.0942

---

Conditions: in NMP, 308.2 K
METRIC: solubility (mole fraction)
Give bare numbers.

Query :: Recorded solubility (mole fraction) of "Cc1ccc(-c2ncc(Cl)cc2-c2ccc(S(C)(=O)=O)cc2)cn1" , please.
Result :: 0.265

---

Conditions: in PEG-600, 308.2 K
METRIC: solubility (mole fraction)
Answers are plain numbers.

Query :: Recorded solubility (mole fraction) of "Cc1ccc(-c2ncc(Cl)cc2-c2ccc(S(C)(=O)=O)cc2)cn1" , please.
Result :: 0.422

---

Conditions: in PEG-200, 313.2 K
METRIC: solubility (mole fraction)
One number for each entry.

Query :: Recorded solubility (mole fraction) of "Cc1ccc(-c2ncc(Cl)cc2-c2ccc(S(C)(=O)=O)cc2)cn1" , please.
Result :: 0.201

---

Conditions: in water, 293.2 K
METRIC: solubility (mole fraction)
Numbers only.

Query :: Recorded solubility (mole fraction) of "Cc1ccc(-c2ncc(Cl)cc2-c2ccc(S(C)(=O)=O)cc2)cn1" , please.
Result :: 1.36e-05

---

Conditions: in propylene glycol, 313.2 K
METRIC: solubility (mole fraction)
Give bare numbers.

Query :: Recorded solubility (mole fraction) of "Cc1ccc(-c2ncc(Cl)cc2-c2ccc(S(C)(=O)=O)cc2)cn1" , please.
Result :: 0.117
